Cited source: ChEMBL document CHEMBL3507680

assay: Human HepG2 cell viability assay in 384 well format; assay type: toxicity, cell-based; set-up: dose 125 nL, time 70.5 hour; concentration not given beside the values; settings: HepG2 cells, read-out: Inhibition
Collected cytotoxicity at 70.5 h values appear next to each entry.

molecule	cytotoxicity at 70.5 h / %
O=C(O)c1ccnc(SCC(F)(F)F)c1	-10.8
Cc1ccccc1C(=O)N1CC[C@@H](N(C)C)[C@@H]1Cc1cnn(C)c1	25.4
CN(C)CC1CSCCCN1C(=O)Nc1ccc(C(C)(C)C)cc1 (stereo not given)	5.94
Cc1cc(C)c(OCC(=O)NS(=O)(=O)c2c(C)noc2C)c(C)c1	12.1
O=C(c1ccc(Br)o1)N1CCCC(n2cncn2)C1 (stereo not given)	-3.18
CCOc1ncccc1NC(=O)C1CCS(=O)(=O)C1 (stereo not given)	0.736
Cc1nc(C)n(CC2CCCN(Cc3nc(C)c(C)o3)C2)n1 (stereo not given)	13.2
c1ccc(-c2noc(CN3CCc4c(ncn4C4CC4)C3)n2)nc1	-6.92
COCc1csc(NC(=O)NCc2ccccn2)n1	5.11
Cc1noc(C)c1CNC(=O)N(C)C1CCN(c2ccccc2)C1=O (stereo not given)	-2.2
COC(=O)C(NC(=O)c1cc(C)ccc1C)c1cccnc1 (stereo not given)	-0.114
CCc1ccc(S(=O)(=O)Nc2cc(C(=O)O)c(F)cc2F)s1	26.3
Cc1nc(CCNC(=O)C2CC(=O)N(C(C)(C)C)C2)sc1Cl (stereo not given)	4.69
COC(=O)Cn1c(=O)nc2n1C(=O)N(c1cccc(Cl)c1)C2	-5.07
Cc1cnc(C(=O)N2CCCCC2c2ccc(CN(C)C)cc2)cn1 (stereo not given)	8.8
CC(=O)NCC(=O)N1CCc2c(CN(C)C)nn(C(C)C)c2C1	-2.84
CC(C)(C)C(O)CN1CCN(C(=O)COCC2CC2)CC1 (stereo not given)	1.65
CCCNC(=O)NCc1cccnc1OC	-5.64
CN(CCc1ccncc1)C(=O)C1CSCN1C(=O)C(C)(C)C (stereo not given)	-8.71
NC(=O)Cn1ccc(NC(=O)C2(c3ccc(F)cc3)CC2)n1	-11.2
CN(Cc1ccc(Cl)s1)C(=O)NCCN1CCCCCC1=O	-3.32
CC1=CCN(S(=O)(=O)c2cccc(C(=O)N3CCOCC3)c2)CC1	-15.8
COc1ccc2c(c1)C(=O)N(C)C1(CCN(CC3CC3)CC1)N2	3.49
c1cn(CCc2c[nH]cn2)c(-c2cc(CN3CCCC3)cs2)n1	-9.06
CN1CCCC(N(C)C(=O)c2ccc(NC(=O)c3cc[nH]n3)cc2)C1 (stereo not given)	-0.159
COc1cc(OC)cc(N2CCC(NCc3occc3C)C2=O)c1 (stereo not given)	31
Oc1ccc(Cl)cc1CNCc1ccccc1C(F)(F)F	-2.09
Cc1noc(C)c1CN1CCCC2(C1)CN(Cc1nccn1C)CCO2 (stereo not given)	-8.03
O=C1COC2(CCN(c3ccccn3)CC2)CN1	-19.6
CCOCC1CN(Cc2cnn(C)c2)Cc2c1cnn2CC (stereo not given)	7.67
CC(SCc1ccc(Br)c2cccnc12)C(N)=O (stereo not given)	18.2
Cn1ccnc1N1CCN(C(=O)Cc2ccccc2)CC1	-8.11
COc1cnc(C2(O)CCN(C(=O)c3cccnc3)CC2)c(OC)n1	-4.88
CC(=O)NCCC(Cc1ccccc1)c1ccco1 (stereo not given)	-13.4
Cc1nc(O)cc(C2CCN(C(=O)CN(C)c3ccccc3)CC2)n1	-3.24
